assay: Protein binding in human serum (equilibrium dialysis); type: in vitro ADME; details: 0.3 μM-10 μM, read-out: average in vitro serum fraction unbound (fu)
experimental-endpoint: fraction unbound
Field format: numeric only.

Look up fraction unbound for this molecule: "C[C@H]1CN(c2c(NC(=O)c3ccc(F)c(-c4c(F)cccc4F)n3)cnc3c2CC[C@H]3O)C[C@@H](N)[C@@H]1O"
0.07

---

biological target: Pim3 (Homo sapiens); experiment: Pim-3 kinase assay (Assay B); assay type: biochemical; details: 1 mM ATP
pIC50: −log10 of the molar value. Counter-ions that a name gives are not always drawn.
experimental-endpoint: pIC50

Solved cases below.
C[C@H]1CN(c2c(NC(=O)c3ccc(F)c(-c4c(F)cccc4F)n3)cnc3c2CC[C@H]3O)C[C@@H](N)[C@@H]1O [dihydrochloric acid salt of Compound 1]; > 7.46
C[C@H]1CN(c2c(NC(=O)c3ccc(F)c(-c4c(F)cccc4F)n3)cnc3c2CC[C@H]3O)C[C@@H](N)[C@@H]1O [Compound 1]; ≥ 7.00

Turning to the following compound.
Look up pIC50 for this compound: C[C@H]1CN(c2c(NC(=O)c3ccc(F)c(-c4c(F)cccc4F)n3)cnc3c2CC[C@H]3O)C[C@@H](N)[C@@H]1O [phosphoric acid salt of Compound 1]
> 7.46

# credit: patent US11278541B2
